experimentalDetails: Chemical stability in simulated gastric fluid (SGF) without pepsin
Format: physicochemical
runParameters: Table 2B, 50 μM prodrug
reportedMetric: Chemical Stability SGF, no enzyme % T0 at 2 hours at 37 °C. (%)

>>> reading("[2H]C([2H])([2H])N(CC(=O)OC(C)(C)C(C)(C)O)C(=N)NC(=O)CCCCCCCCCC [Compound 61]")
99
>>> reading("Cl.[2H]C([2H])([2H])N(CC(=O)OC(C)(C)C(F)(F)F)C(=N)NC(=O)CCCCCC [Compound 55]")
94
>>> reading("Cl.[2H]C([2H])([2H])N(CC(=O)OC(C)C(C)(C)C)C(=N)NC(=O)CCCCCCCCCC (stereo not drawn) [Compound 52]")
98
